Molecular target: FGF14:Nav1.6 C-tail complex (Homo sapiens, UniProt Q92915+Q9UQD0)
Construct: polymerase chain reaction (PCR) amplification of the FGF14 open reading frame (nt 1–855); C-terminal fragment of Nav1.6 (amino acids 1763–1976) fused with CD4ΔC-tail (amino acids 1–395); expressed in transfected cells
Sequence (Q92915 1-252 isoform Q92915-2): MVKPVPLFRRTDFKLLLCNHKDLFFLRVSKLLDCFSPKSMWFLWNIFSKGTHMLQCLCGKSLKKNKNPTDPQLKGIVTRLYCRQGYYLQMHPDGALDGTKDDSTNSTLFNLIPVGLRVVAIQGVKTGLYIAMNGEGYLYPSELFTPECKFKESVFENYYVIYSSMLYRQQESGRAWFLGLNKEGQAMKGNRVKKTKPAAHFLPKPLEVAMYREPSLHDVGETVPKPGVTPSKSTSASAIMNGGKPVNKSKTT
Sequence (Q9UQD0 1763-1976 limits assumed): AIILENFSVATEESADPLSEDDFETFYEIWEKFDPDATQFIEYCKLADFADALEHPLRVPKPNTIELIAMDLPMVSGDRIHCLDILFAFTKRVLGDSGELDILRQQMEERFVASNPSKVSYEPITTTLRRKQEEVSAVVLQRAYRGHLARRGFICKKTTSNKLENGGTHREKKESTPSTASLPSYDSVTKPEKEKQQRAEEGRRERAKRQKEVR
Assay: Split-luciferase complementation assay (LCA) in Clone V double stable HEK293 cells
Assay type: cell-based
Conditions: CC_NCI screening; LCA, biological replicate Set 1; normalized to on-plate 0.3% DMSO controls
Known Split Luciferase Assay Z-score Set 1 of a selection of molecules
reported-endpoint: Split Luciferase Assay Z-score Set 1

INSERT INTO results (molecule, reported_endpoint, data_value) VALUES
  ('Cc1cc(Nc2ncc3cc(-c4c(Cl)cccc4Cl)c(=O)n(C)c3n2)ccc1F', 'Split Luciferase Assay Z-score Set 1', 1.70),
  ('Cn1cc(C2=C(c3ccc(Cl)cc3Cl)C(=O)NC2=O)c2ccccc21', 'Split Luciferase Assay Z-score Set 1', -0.94),
  ('CCN(CCO)CCCOc1ccc2c(Nc3cc(CC(=O)Nc4cccc(F)c4)[nH]n3)ncnc2c1', 'Split Luciferase Assay Z-score Set 1', -1.03),
  ('CN[C@@H]1C[C@H]2O[C@@](C)([C@@H]1OC)n1c3ccccc3c3c4c(c5c6ccccc6n2c5c31)C(=O)NC4 [Staurosporine, reference compound]', 'Split Luciferase Assay Z-score Set 1', -6.21),
  ('CCOC(=O)C1=C(N)Oc2ccc(Br)cc2C1C(C#N)C(=O)OCC (stereo not drawn)', 'Split Luciferase Assay Z-score Set 1', -1.55),
  ('CO[C@H]1C[C@@H]2CC[C@@H](C)[C@@](O)(O2)C(=O)C(=O)N2CCCC[C@H]2C(=O)O[C@H]([C@H](C)C[C@@H]2CC[C@@H](O)[C@H](OC)C2)CC(=O)[C@H](C)/C=C(\C)[C@@H](O)[C@@H](OC)C(=O)[C@H](C)C[C@H](C)/C=C/C=C/C=C/1C', 'Split Luciferase Assay Z-score Set 1', -0.32);
